assay: Solubility studies using micronized glibenclamide: unbuffered 2% sucrose and water; type: physicochemical; conditions: aqueous buffer, thermodynamic from solid, water without bulking agent, pH 10.28, read-out: GLB mg/ml (glibenclamide in solution)
Measurement name: solubility (mg/mL)
Write the value in mg/mL as a bare number.

-- ask Please give measured solubility of the following entry: COc1ccc(Cl)cc1C(=O)NCCc1ccc(S(=O)(=O)NC(=O)NC2CCCCC2)cc1 [Glibenclamide]
-- reply 4.87

---

assay: Solubility studies using micronized glibenclamide: unbuffered saline; type: physicochemical; conditions: 2% saline in water, saline or isotonic, thermodynamic from solid, Saline 2%, pH 7.24, read-out: GLB mg/ml (glibenclamide in solution)
Measurement name: solubility

-- ask Please give measured solubility of the following entry: COc1ccc(Cl)cc1C(=O)NCCc1ccc(S(=O)(=O)NC(=O)NC2CCCCC2)cc1 [Glibenclamide]
-- reply 0.012 mg/mL

---

experiment: Solubility studies using micronized glibenclamide: unbuffered saline; assay type: physicochemical; details: 0.9% saline in water, pH 9.18, saline or isotonic, thermodynamic from solid, Saline 0.9%, pH 9.180, read-out: GLB mg/ml (glibenclamide in solution)
Measurement name: solubility

-- ask Please give measured solubility of the following entry: COc1ccc(Cl)cc1C(=O)NCCc1ccc(S(=O)(=O)NC(=O)NC2CCCCC2)cc1 [Glibenclamide]
-- reply 0.435 mg/mL

---

test: Solubility studies using micronized glibenclamide: unbuffered 2% sucrose and water; assay type: physicochemical; conditions: aqueous buffer, thermodynamic from solid, water without bulking agent, pH 9.57, read-out: GLB mg/ml (glibenclamide in solution)
Measurement name: solubility
Please provide the amount together with its unit, number first.

-- ask Please give measured solubility of the following entry: COc1ccc(Cl)cc1C(=O)NCCc1ccc(S(=O)(=O)NC(=O)NC2CCCCC2)cc1 [Glibenclamide]
-- reply 3.97 mg/mL

---

assay: Solubility of glibenclamide in buffered water solutions (Britton Robinson); assay type: physicochemical; conditions: Britton Robinson buffer, pH 7.1, aqueous buffer, pH 7.100, read-out: GLB mg/mL (glibenclamide in solution)
Measurement name: solubility (mg/mL)
Write the value in mg/mL as a bare number.

-- ask Please give measured solubility of the following entry: COc1ccc(Cl)cc1C(=O)NCCc1ccc(S(=O)(=O)NC(=O)NC2CCCCC2)cc1 [Glibenclamide]
-- reply 0.01

---

test: Solubility of glibenclamide in buffered water solutions (Britton Robinson); type: physicochemical; conditions: Britton Robinson buffer, pH 6.2, aqueous buffer, pH 6.200, read-out: GLB mg/mL (glibenclamide in solution)
Measurement name: solubility
Please provide the amount together with its unit, number first.

-- ask Please give measured solubility of the following entry: COc1ccc(Cl)cc1C(=O)NCCc1ccc(S(=O)(=O)NC(=O)NC2CCCCC2)cc1 [Glibenclamide]
-- reply 0.01 mg/mL

---

Test: Solubility studies using micronized glibenclamide: unbuffered saline
Format: physicochemical
Settings: 0.9% saline in water, pH 8.44, saline or isotonic, thermodynamic from solid, Saline 0.9%, pH 8.440, read-out: GLB mg/ml (glibenclamide in solution)
Source text: This was done iteratively until pH was stable. “GLB” indicates glibenclamide.
Measurement name: solubility (mg/mL)
Write the value in mg/mL as a bare number.

-- ask Please give measured solubility of the following entry: COc1ccc(Cl)cc1C(=O)NCCc1ccc(S(=O)(=O)NC(=O)NC2CCCCC2)cc1 [Glibenclamide]
-- reply 0.109

---

assay: Solubility of glibenclamide in buffered water solutions (Britton Robinson); assay type: physicochemical; conditions: Britton Robinson buffer, aqueous buffer, pH 8.3, read-out: GLB mg/mL (glibenclamide in solution)
Measurement name: solubility (mg/mL)
Write the value in mg/mL as a bare number.

-- ask Please give measured solubility of the following entry: COc1ccc(Cl)cc1C(=O)NCCc1ccc(S(=O)(=O)NC(=O)NC2CCCCC2)cc1 [Glibenclamide]
-- reply 0.02

---

assay: Solubility studies using micronized glibenclamide: unbuffered 2% sucrose and water; assay type: physicochemical; conditions: aqueous buffer, thermodynamic from solid, water without bulking agent, pH 7.36, read-out: GLB mg/ml (glibenclamide in solution)
Measurement name: solubility (mg/mL)
Write the value in mg/mL as a bare number.

-- ask Please give measured solubility of the following entry: COc1ccc(Cl)cc1C(=O)NCCc1ccc(S(=O)(=O)NC(=O)NC2CCCCC2)cc1 [Glibenclamide]
-- reply 0.019

---

assay: Solubility studies using micronized glibenclamide: unbuffered 2% sucrose and water; assay type: physicochemical; settings: aqueous buffer, thermodynamic from solid, water without bulking agent, pH 8.73, read-out: GLB mg/ml (glibenclamide in solution)
Measurement name: solubility (mg/mL)
Write the value in mg/mL as a bare number.

-- ask Please give measured solubility of the following entry: COc1ccc(Cl)cc1C(=O)NCCc1ccc(S(=O)(=O)NC(=O)NC2CCCCC2)cc1 [Glibenclamide]
-- reply 0.087

---

test: Solubility studies using micronized glibenclamide: unbuffered saline; format: physicochemical; details: 0.9% saline in water, pH 11.06, saline or isotonic, thermodynamic from solid, Saline 0.9%, pH 11.060, read-out: GLB mg/ml (glibenclamide in solution)
Measurement name: solubility

-- ask Please give measured solubility of the following entry: COc1ccc(Cl)cc1C(=O)NCCc1ccc(S(=O)(=O)NC(=O)NC2CCCCC2)cc1 [Glibenclamide]
-- reply 0.445 mg/mL

---

assay: Solubility studies using micronized glibenclamide: unbuffered 2% sucrose and water; assay type: physicochemical; conditions: aqueous buffer, thermodynamic from solid, water without bulking agent, pH 11.44, read-out: GLB mg/ml (glibenclamide in solution)
Measurement name: solubility
Please provide the amount together with its unit, number first.

-- ask Please give measured solubility of the following entry: COc1ccc(Cl)cc1C(=O)NCCc1ccc(S(=O)(=O)NC(=O)NC2CCCCC2)cc1 [Glibenclamide]
-- reply 4.84 mg/mL

---

assay: Solubility studies using micronized glibenclamide: unbuffered saline; type: physicochemical; details: 2% saline in water, saline or isotonic, thermodynamic from solid, Saline 2%, pH 8.94, read-out: GLB mg/ml (glibenclamide in solution)
Measurement name: solubility (mg/mL)
Write the value in mg/mL as a bare number.

-- ask Please give measured solubility of the following entry: COc1ccc(Cl)cc1C(=O)NCCc1ccc(S(=O)(=O)NC(=O)NC2CCCCC2)cc1 [Glibenclamide]
-- reply 0.233

---

test: Solubility studies using micronized glibenclamide: unbuffered 2% sucrose and water; type: physicochemical; settings: aqueous buffer, thermodynamic from solid, water without bulking agent, pH 12.27, read-out: GLB mg/ml (glibenclamide in solution)
Measurement name: solubility (mg/mL)
Write the value in mg/mL as a bare number.

-- ask Please give measured solubility of the following entry: COc1ccc(Cl)cc1C(=O)NCCc1ccc(S(=O)(=O)NC(=O)NC2CCCCC2)cc1 [Glibenclamide]
-- reply 2.51

---

experiment: Solubility studies using micronized glibenclamide: unbuffered 2% sucrose and water; format: physicochemical; conditions: aqueous buffer, thermodynamic from solid, water without bulking agent, pH 11.19, read-out: GLB mg/ml (glibenclamide in solution)
Measurement name: solubility (mg/mL)
Write the value in mg/mL as a bare number.

-- ask Please give measured solubility of the following entry: COc1ccc(Cl)cc1C(=O)NCCc1ccc(S(=O)(=O)NC(=O)NC2CCCCC2)cc1 [Glibenclamide]
-- reply 4.67

---

test: Solubility studies using micronized glibenclamide: unbuffered saline; format: physicochemical; conditions: 0.9% saline in water, pH 9.92, saline or isotonic, thermodynamic from solid, Saline 0.9%, pH 9.920, read-out: GLB mg/ml (glibenclamide in solution)
Measurement name: solubility (mg/mL)
Write the value in mg/mL as a bare number.

-- ask Please give measured solubility of the following entry: COc1ccc(Cl)cc1C(=O)NCCc1ccc(S(=O)(=O)NC(=O)NC2CCCCC2)cc1 [Glibenclamide]
-- reply 0.42
